assay: Metabolic stability in heat inactivated human liver microsomes assessed as compound remaining at 1 uM measured at 60 mins by LC-MS/MS analysis relative to control; type: ADME, Microsome; conditions: heat-inactivated liver microsomes, read-out: Stability
Endpoint: remaining at 1 h, 1 µM (%)
Only the number, expressed in %, is required.

Q: Quick one: remaining at 1 h, 1 µM for `C#Cc1ccc2c(c1)C(c1ccccc1)=NCc1c(C(=O)NC)ncn1-2` ?
Ans: 114

Q: Quick one: remaining at 1 h, 1 µM for `C#Cc1ccc2c(c1)C(c1ccccc1F)=NCc1c(C(=O)OCC)ncn1-2` ?
Ans: 102

Q: Quick one: remaining at 1 h, 1 µM for `C#Cc1ccc2c(c1)C(c1ccccc1)=NCc1c(C(=O)OCC)ncn1-2` ?
Ans: 107

Q: Quick one: remaining at 1 h, 1 µM for `C#Cc1ccc2c(c1)C(c1ccccn1)=NCc1c(C(=O)OCC)ncn1-2` ?
Ans: 93.8

Q: Quick one: remaining at 1 h, 1 µM for `C#Cc1ccc2c(c1)C(c1ccccn1)=NCc1c(C(=O)O)ncn1-2` ?
Ans: 97

Q: Quick one: remaining at 1 h, 1 µM for `C#Cc1ccc2c(c1)C(c1ccccn1)=NCc1c(-c3nc(C(C)C)no3)ncn1-2` ?
Ans: 113

Q: Quick one: remaining at 1 h, 1 µM for `C#Cc1ccc2c(c1)C(c1ccccc1F)=NCc1c(C(=O)NC)ncn1-2` ?
Ans: 116

Q: Quick one: remaining at 1 h, 1 µM for `C#Cc1ccc2c(c1)C(c1ccccc1)=NCc1c(C(=O)O)ncn1-2` ?
Ans: 106

Q: Quick one: remaining at 1 h, 1 µM for `C#Cc1ccc2c(c1)C(c1ccccn1)=NCc1c(C(=O)NC)ncn1-2` ?
Ans: 110
